System: OVCAR-5 complex spheroid (HUVEC/MSC), viability % T/C
experiment notes: Anticancer human tumor OVCAR-5 cell line growth inhibition [Asc];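 also: spheroids exposed to agents for 7 days before readout; 100% = DMSO vehicle-treated wells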
condition label: second compound 0.316 µM; first compound 10 µM; hits give low values
// values below are reported viability, T/C
quantity: viability, T/C (%)

• C=C(F)C(=O)N1CCN(c2nc(OCC3CCCN3C)nc3c2CCN(c2cccc4cccc(Cl)c24)C3)CC1CC#N (stereo not drawn) + Cc1c(S(C)(=O)=O)c(-c2cc(F)cc(N3CCN(c4ccc(NS(=O)(=O)c5ccc(NC(CCN6CCC(C(=O)OCCCP(=O)(O)O)CC6)CSc6ccccc6)c(S(=O)(=O)C(F)(F)F)c5)cc4)CC3)c2)c(-c2ccc(Cl)cc2)n1C(C)C = 0.12
• O=C(c1cc(Cc2n[nH]c(=O)c3ccccc23)ccc1F)N1CCN(C(=O)C2CC2)CC1 + CNC(C)C(=O)NC1CN(S(=O)(=O)c2cccc(S(=O)(=O)N3CCC4CCC(C(=O)NC(c5ccccc5)c5ccccc5)N4C(=O)C(NC(=O)C(C)NC)C3)c2)CCC2CCC(C(=O)NC(c3ccccc3)c3ccccc3)N2C1=O = 62
• C#Cc1c(F)ccc2cc(O)cc(-c3ncc4c(N5CC6CCC(C5)N6)nc(OCC56CCCN5CC(F)C6)nc4c3F)c12 (stereo not drawn) + Cc1c(S(C)(=O)=O)c(-c2cc(F)cc(N3CCN(c4ccc(NS(=O)(=O)c5ccc(NC(CCN6CCC(C(=O)OCCCP(=O)(O)O)CC6)CSc6ccccc6)c(S(=O)(=O)C(F)(F)F)c5)cc4)CC3)c2)c(-c2ccc(Cl)cc2)n1C(C)C = 24.5
• C=CC(=O)N1CCN(c2nc(=O)n(-c3c(C)ccnc3C(C)C)c3nc(-c4c(O)cccc4F)c(F)cc23)C(C)C1 (stereo not drawn) + CNC(C)C(=O)NC1CN(S(=O)(=O)c2cccc(S(=O)(=O)N3CCC4CCC(C(=O)NC(c5ccccc5)c5ccccc5)N4C(=O)C(NC(=O)C(C)NC)C3)c2)CCC2CCC(C(=O)NC(c3ccccc3)c3ccccc3)N2C1=O = 109
• C#Cc1c(F)ccc2cc(O)cc(-c3ncc4c(N5CC6CCC(C5)N6)nc(OCC56CCCN5CC(F)C6)nc4c3F)c12 (stereo not drawn) + CNC(C)C(=O)NC1CN(S(=O)(=O)c2cccc(S(=O)(=O)N3CCC4CCC(C(=O)NC(c5ccccc5)c5ccccc5)N4C(=O)C(NC(=O)C(C)NC)C3)c2)CCC2CCC(C(=O)NC(c3ccccc3)c3ccccc3)N2C1=O = 37.8
• C=C(F)C(=O)N1CCN(c2nc(OCC3CCCN3C)nc3c2CCN(c2cccc4cccc(Cl)c24)C3)CC1CC#N (stereo not drawn) + CNC(C)C(=O)NC1CN(S(=O)(=O)c2cccc(S(=O)(=O)N3CCC4CCC(C(=O)NC(c5ccccc5)c5ccccc5)N4C(=O)C(NC(=O)C(C)NC)C3)c2)CCC2CCC(C(=O)NC(c3ccccc3)c3ccccc3)N2C1=O = 0.16
• O=C(c1cc(Cc2n[nH]c(=O)c3ccccc23)ccc1F)N1CCN(C(=O)C2CC2)CC1 + Cc1c(S(C)(=O)=O)c(-c2cc(F)cc(N3CCN(c4ccc(NS(=O)(=O)c5ccc(NC(CCN6CCC(C(=O)OCCCP(=O)(O)O)CC6)CSc6ccccc6)c(S(=O)(=O)C(F)(F)F)c5)cc4)CC3)c2)c(-c2ccc(Cl)cc2)n1C(C)C = 78.5
• C=CC(=O)N1CCN(c2nc(=O)n(-c3c(C)ccnc3C(C)C)c3nc(-c4c(O)cccc4F)c(F)cc23)C(C)C1 (stereo not drawn) + Cc1c(S(C)(=O)=O)c(-c2cc(F)cc(N3CCN(c4ccc(NS(=O)(=O)c5ccc(NC(CCN6CCC(C(=O)OCCCP(=O)(O)O)CC6)CSc6ccccc6)c(S(=O)(=O)C(F)(F)F)c5)cc4)CC3)c2)c(-c2ccc(Cl)cc2)n1C(C)C = 102
